Source listed as PubChem BioAssay (NCI).

# experimental.details: NCI Yeast Anticancer Drug Screen. Data for the sgs1 mgt1 strain (AID 161);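 note: 0% = growth of cultures given vehicle only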
# conditions: S. cerevisiae sgs1 mgt1 strain, at 50.0 µM (retest, dose inferred, filed as 5.0), hits give high values
About 79,000 compounds went through this panel and 15% of them were active in at least one assay; those are over-represented in the sample as a whole.
measured.attribute: growth inhibition (%)
Numeric only. Scale: %

So, `CC(C)c1ccc2c(c1)CC[C@H]1[C@](C)(C(=O)O)CCC[C@]21C` ? Its growth inhibition was 96

So, `Cc1cc(CC(O)(C(F)(F)F)C(F)(F)F)cc(CC(O)(C(F)(F)F)C(F)(F)F)n1` ? Its growth inhibition was 98

So, `COc1cc(C(=O)[O][Sn]([c]2ccccc2)([c]2ccccc2)[c]2ccccc2)cc(OC)c1OC` ? Its growth inhibition was 99

So, `CCCCP(CCCC)(CCCC)=C(C(=O)OC)C(C(=O)OC)=C1SC(C(=O)OC)=C(C(=O)OC)S1` ? Its growth inhibition was 26

So, COC(=O)C1C(c2ccccc2)=N[C@@H](c2ccccc2)[C@H]1C(=O)OC (stereo not given in full) ? Its growth inhibition was 3

So, `Nc1ccc(C(=O)N/C(=C\c2ccc3c(c2)OCO3)c2nc3ccccc3s2)cc1` ? Its growth inhibition was 99

So, `CC(=O)N[C@H]1CC[C@H]2[C@@H]3CCC4=CC(=O)CC[C@]4(C)[C@H]3CC[C@]12C` ? Its growth inhibition was -10

So, CCC1CCC(CC)C1O (stereo not given) ? Its growth inhibition was 0

So, CCCCCCCCCc1ccc(OCC(O)CO)cc1 (stereo not given) ? Its growth inhibition was 99

So, `N#C/C(=C/c1ccc([N+](=O)[O-])o1)c1ccccc1` ? Its growth inhibition was -1

* * *

# experimental.details: NCI Yeast Anticancer Drug Screen. Data for the sgs1 mgt1 strain (AID 161);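 note: 0% = growth of cultures given vehicle only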
# conditions: S. cerevisiae sgs1 mgt1 strain, at 5.0 µM (retest, dose inferred, filed as 0.5), hits give high values
The panel holds about 79,000 compounds, 15% with a hit somewhere; the sample as a whole holds those more often.
Everything with growth inhibition lower than 70% is false (0); everything else, including exactly 70%, is true (1).

Below, 8 compounds whose answers are already recorded.
- compound: "CCc1ccc(C(=O)O)c2ccccc12"
  qualitative.label: "false (0)"
- compound: "CCOC(=O)CN1C(=O)S/C(=C/c2ccc([N+](=O)[O-])o2)C1=O"
  qualitative.label: "false (0)"
- compound: "C/C(=N\\NC(=S)N/N=C(\\C)c1ccccn1)c1ccccn1"
  qualitative.label: "true (1)"
- compound: "NNC(=O)c1ccccc1SSc1ccccc1C(=O)NN"
  qualitative.label: "true (1)"
- compound: "O=c1[nH][nH]c(=O)c2c1nc(SCc1ccccc1)n2Cc1ccccc1"
  qualitative.label: "false (0)"
- compound: "Nc1nnc(-c2cc(=O)c3cc(Cl)ccc3o2)s1"
  qualitative.label: "false (0)"
- compound: "Cc1ccc(N=Nc2c(-c3ccccc3)nn(C(=S)S)c2-c2ccccc2)cc1"
  qualitative.label: "false (0)"
- compound: "Cc1cc(NC(=S)SCc2ccc3c(c2)OCO3)ccc1Cl"
  qualitative.label: "false (0)"

In: Exam item: decide whether the reported growth inhibition for CC1(C)CCC2(C(=O)O)CCC3(C)C(=CCC4C5(C)CC(O)C(O)C(C)(C(=O)O)C5CCC43C)C2C1 (stereo not drawn) is at least 70%.
Out: true (1)

In: Exam item: decide whether the reported growth inhibition for CCOC(=O)C1C(c2cccc(OC)c2O)c2cc3c(cc2OC1(C)N1CCCC1)OCO3 (stereo not drawn) is at least 70%.
Out: false (0)

In: Exam item: decide whether the reported growth inhibition for `O=C(CC(O)(C(F)(F)Cl)C(F)(F)Cl)CC(O)(C(F)(F)Cl)C(F)(F)Cl` is at least 70%.
Out: true (1)

In: Exam item: decide whether the reported growth inhibition for `CCCCCCCCCCCCNC(=O)C[n+]1ccc(C(N)=O)cc1` is at least 70%.
Out: false (0)

In: Exam item: decide whether the reported growth inhibition for `Cc1ccc2ccc3ccc(C)nc3c2n1` is at least 70%.
Out: true (1)

In: Exam item: decide whether the reported growth inhibition for `COc1ccc(Oc2cc3c[n+](C)ccc3cc2OC)cc1` is at least 70%.
Out: false (0)

In: Exam item: decide whether the reported growth inhibition for `N#CC(C#N)=Cc1ccc(Oc2ccccc2)cc1` is at least 70%.
Out: false (0)

In: Exam item: decide whether the reported growth inhibition for `CN1C/C(=C\c2ccc(Cl)cc2)C(=O)/C(=C/c2ccc(Cl)cc2)C1` is at least 70%.
Out: true (1)

In: Exam item: decide whether the reported growth inhibition for CC1CCC2(NC1)OC1CC3[C@@H]4CC=C5C=CCC[C@]5(C)C4CC[C@]3(C)C1C2C (stereo partly drawn) is at least 70%.
Out: false (0)

In: Exam item: decide whether the reported growth inhibition for `Oc1cc(Cc2ccccc2)c(Cc2ccccc2)cc1O` is at least 70%.
Out: false (0)

In: Exam item: decide whether the reported growth inhibition for `O=C1c2ccccc2C(=O)c2sc(Nc3cc(Cl)ccc3Cl)nc21` is at least 70%.
Out: false (0)
